- System: CAKI-1
- testDescription: NCI SRB cytotoxicity, renal CAKI-1
- Type: cell-based
- testConditions: Homo sapiens, 48 h exposure
parameter: GI50 (nM)
Dear colleague, please return just the value in nM, with no unit written.

What does the data say about its GI50? Entry: `COc1ccc(C(=O)/C=C/c2cc(-c3cc(OC)c(OC)c(OC)c3)n[nH]2)cc1OC`
2200

What does the data say about its GI50? Entry: COc1cc(-c2cc(/C=C/C(=O)c3ccc4c(c3)OCO4)[nH]n2)cc(OC)c1OC [11e]
5510

What does the data say about its GI50? Entry: COc1cc(-c2cc(/C=C/C(=O)c3ccc(Cl)c(Cl)c3)[nH]n2)cc(OC)c1OC [12e]
16900

What does the data say about its GI50? Entry: COc1cc(-c2cc(/C=C/C(=O)c3ccc(F)c(F)c3)[nH]n2)cc(OC)c1OC [13e]
2980

What does the data say about its GI50? Entry: `COc1ccc(C(=O)/C=C/c2cc(-c3ccc4c(c3)OCO4)n[nH]2)cc1OC`
1900

What does the data say about its GI50? Entry: `COc1ccc(C(=O)/C=C/c2cc(-c3cc(OC)c(OC)c(OC)c3)n[nH]2)cc1`
2340

What does the data say about its GI50? Entry: COc1cc(C(=O)/C=C/c2cc(-c3cc(OC)c(OC)c(OC)c3)n[nH]2)cc(OC)c1OC [10e]
2580
